Data origin: patent US20260216242A1

MEASURED_ON: T1, ALPI expressed on the surface of CHO cells (CHO-ALPI) (Homo sapiens, UniProt P09923)
T1 construct: expressed in transfected cells
T1 sequence (P09923 20-503 limits assumed): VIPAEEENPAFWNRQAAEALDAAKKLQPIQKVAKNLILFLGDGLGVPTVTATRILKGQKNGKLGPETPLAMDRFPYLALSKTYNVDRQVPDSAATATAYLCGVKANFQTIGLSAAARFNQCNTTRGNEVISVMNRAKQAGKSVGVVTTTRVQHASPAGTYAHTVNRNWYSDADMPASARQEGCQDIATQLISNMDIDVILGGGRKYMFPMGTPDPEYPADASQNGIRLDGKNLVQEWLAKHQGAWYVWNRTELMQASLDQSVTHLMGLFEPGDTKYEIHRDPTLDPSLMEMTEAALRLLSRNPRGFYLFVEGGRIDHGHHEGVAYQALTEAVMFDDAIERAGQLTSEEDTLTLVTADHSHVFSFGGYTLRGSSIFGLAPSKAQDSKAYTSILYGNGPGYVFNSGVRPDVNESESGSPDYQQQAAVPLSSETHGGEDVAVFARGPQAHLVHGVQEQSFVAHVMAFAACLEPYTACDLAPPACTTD
TEST_DESCRIPTION: Cell-surface binding by flow cytometry, CHO-ALPI
CONDITIONS: VHH His proteins, flow cytometry, up to 350 nM

| MOLECULE | KDapp CHO-ALPI |
| --- | --- |
| A06: ALPP/ALPPL2 targeting VHH domain, SEQ ID NO: 17; tested C-terminally His-tagged (protein, C-terminal His tag, tested C-terminally His-tagged) VHH: QVHLVESGGGLVQAGGSLRLSCAASGRTFLSMGWFRQAPGKEREFVAAISWTGGSTGYADSVKGRFTISRESDKETMYLQMNSLKPEDTAVYYCAARGDVYYGGDDATRYKYWGQGTQVTVSS | No binding |
| E06: ALPP/ALPPL2 targeting VHH domain, SEQ ID NO: 30 (protein) VHH: QVHLVESGGGLVQAGGSLRLSCAASRRSFSEYAMGWFRQAPGKEREFVAAIGWSGVIEYADSVKGRFTISRDNAKDTVYLQMNSLKPEDTAVYYCAAGLGIRVVSQTPAYWGQGTQVTVSS | No binding |
